# system-name: Human recombinant MMP-14 (Homo sapiens, UniProt P50281)
# Construct: The catalytic domain enzyme was expressed in E. coli inclusion bodies, solubilized in urea; made in house
# test-details: In vitro MMP inhibition, IC50 determination (fluorogenic substrate I)
# Assay type: biochemical
# measurement-conditions: value outside parenthesis
reported-endpoint: IC50

compound | reported-endpoint | recorded-result
CC(C)C(=O)c1cccc(CCCOc2ccc(S(=O)(=O)C3(C(=O)NO)CCOCC3)cc2)c1 [Example 95] | IC50 | > 10 µM
CC(C)[C@H]1C(=O)N(CCCOc2ccc(S(=O)(=O)C3(C(=O)NO)CCOCC3)cc2)C(=O)N1c1ccccc1 [Example 134] | IC50 | > 10 µM
CC(C)c1ccc(-c2nnc(CCCOc3ccc(S(=O)(=O)C4(C(=O)NO)CCOCC4)cc3)o2)cc1 [Example 247] | IC50 | > 10 µM

(Q) Fill blank: measured IC50 of the compound COCCN1CCC(C(=O)NO)(S(=O)(=O)c2ccc(OCCCCC(=O)c3ccc(N(C)C)cc3)cc2)CC1 [Example 248] is ____.
(A) 1.7 µM

(Q) Fill blank: measured IC50 of the compound O=C(CCCOc1ccc(S(=O)(=O)C2(C(=O)NO)CCOCC2)cc1)Nc1cccc(OC(F)(F)F)c1 [Example 181] is ____.
(A) 8.06 µM

* * *

Recorded pIC50, one value per entry.
# system-name: Human recombinant MMP-2 (Homo sapiens)
# Construct: made in house; host or cells: MMP-2-transfected p2AHT2 cells
# Sequence (P08253 110-660): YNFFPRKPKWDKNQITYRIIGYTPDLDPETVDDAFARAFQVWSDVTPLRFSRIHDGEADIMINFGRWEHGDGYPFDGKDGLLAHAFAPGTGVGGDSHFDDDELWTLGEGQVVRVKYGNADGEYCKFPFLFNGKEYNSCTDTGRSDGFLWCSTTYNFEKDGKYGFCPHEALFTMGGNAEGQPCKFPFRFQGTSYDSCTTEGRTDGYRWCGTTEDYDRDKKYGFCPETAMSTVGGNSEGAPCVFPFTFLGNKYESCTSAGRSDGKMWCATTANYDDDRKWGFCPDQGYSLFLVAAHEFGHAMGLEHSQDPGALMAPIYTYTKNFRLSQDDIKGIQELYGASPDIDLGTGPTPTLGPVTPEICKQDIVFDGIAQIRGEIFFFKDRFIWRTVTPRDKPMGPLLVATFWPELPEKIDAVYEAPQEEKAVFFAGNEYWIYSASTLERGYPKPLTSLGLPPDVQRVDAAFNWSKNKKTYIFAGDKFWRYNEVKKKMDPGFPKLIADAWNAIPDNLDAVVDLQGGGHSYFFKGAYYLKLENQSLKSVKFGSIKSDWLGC
# test-details: In vitro MMP inhibition, IC50 determination (fluorogenic substrate I)
# Format: biochemical
# measurement-conditions: value outside parenthesis
A value of pIC50 is the negative decimal logarithm of a concentration given in moles per litre.

Some entries whose results are on file:
query-smiles | pIC50
COCCN1CCC(C(=O)NO)(S(=O)(=O)c2ccc(OCCCc3nc(-c4ccccc4OC(F)(F)F)no3)cc2)CC1 | 7.23
O=C(NO)C1(S(=O)(=O)c2ccc(OCCc3cccc(-c4ccc(OC(F)(F)F)cc4)c3)cc2)CCOCC1 | 7.18
COc1ccc(-c2cccc(CCOc3ccc(S(=O)(=O)C4(C(=O)NO)CCOCC4)cc3)c2)cc1C | 5.93
O=C1CN(c2cccc(OC(F)(F)F)c2)C(=O)N1CCCOc1ccc(S(=O)(=O)C2(C(=O)NO)CCOCC2)cc1 | 7.13
Cc1cc(NC(=O)CCCOc2ccc(S(=O)(=O)C3(C(=O)NO)CCOCC3)cc2)ccc1OC(C)C | 6.23

(Q) Fill blank: measured pIC50 of the compound CC(C)c1cccc(CCCOc2ccc(S(=O)(=O)C3(C(=O)NO)CCOCC3)cc2)c1 is ____.
(A) 7.75

(Q) Fill blank: measured pIC50 of the compound O=C(NO)C1(S(=O)(=O)c2ccc(OCCCc3nc(-c4ccc(F)cc4)no3)cc2)CCOCC1 is ____.
(A) 7.08

* * *

# system-name: Human recombinant MMP-13 (Homo sapiens, UniProt P45452)
# Construct: made in house; host or cells: baculovirus / insect cells
# test-details: In vitro MMP inhibition, Ki determination (fluorogenic substrate II)
# Type: biochemical
# measurement-conditions: value in parenthesis
pKi: −log10 of the molar value.
Hi, to clarify the labels: Yes covers pKi from 9 upward, No covers anything below 9.

As a guide, the following entries are already answered.
query-smiles | cat
COCCN1CCC(C(=O)NO)(S(=O)(=O)c2ccc(OCCCc3nc(-c4ccc(C5(c6ccccc6)CC5)cc4)no3)cc2)CC1 | No
O=C(NO)C1(S(=O)(=O)c2ccc(OCCCc3cccc(-c4ccc(F)cc4)c3)cc2)CCN(C2CC2)CC1 | No

(Q) Does the compound O=C(NO)C1(S(=O)(=O)c2ccc(OCCc3cccc(-c4ccc(F)cc4)c3)cc2)CCOCC1 have recorded pKi that is 9 or more?
(A) No

(Q) Does the compound O=C(NO)C1(S(=O)(=O)c2ccc(OCCCc3cccc(-c4ccc(F)c(F)c4)c3)cc2)CCOCC1 have recorded pKi that is 9 or more?
(A) No

(Q) Does the compound Cc1cc(-c2cccc(CCOc3ccc(S(=O)(=O)C4(C(=O)NO)CCOCC4)cc3)c2)ccc1Cl have recorded pKi that is 9 or more?
(A) No

(Q) Does the compound O=C(NO)C1(S(=O)(=O)c2ccc(OCCc3cccc(-c4cccnc4)c3)cc2)CCOCC1 have recorded pKi that is 9 or more?
(A) Yes

* * *

Recorded IC50, one value per entry.
# system-name: Human recombinant MMP-13 (Homo sapiens)
# Construct: made in house; host or cells: baculovirus / insect cells
# test-details: In vitro MMP inhibition, IC50 determination (fluorogenic substrate I)
# Format: biochemical
# measurement-conditions: value outside parentheses
Enter your answer as a number in nM; do not include the unit.

Some entries whose results are on file:
molecule | reading-unit | IC50
CC(=O)c1ccc(OCCOc2ccc(S(=O)(=O)C3(C(=O)NO)CCOCC3)cc2)cc1 | nM | 0.41
O=C(NO)C1(S(=O)(=O)c2ccc(OCCCc3cccc(-c4csc5ccccc45)c3)cc2)CCOCC1 | nM | 118
N=C(NCCOc1ccc(S(=O)(=O)C2(C(=O)NO)CCOCC2)cc1)c1ccccc1 | nM | 214
O=C(NO)C1(S(=O)(=O)c2ccc(OCCOc3ccccc3)cc2)CCOCC1 | nM | 9.42
O=C(NO)C1(S(=O)(=O)c2ccc(OCCCc3nnc(-c4ccncc4)o3)cc2)CCOCC1 | nM | 1.5

(Q) Fill blank: measured IC50 of the molecule O=C(NO)C1(S(=O)(=O)c2ccc(OCC3Cc4cc(Oc5ccccc5)ccc4O3)cc2)CCOCC1 (centres unmarked) is ____.
(A) 1.02

* * *

# system-name: Human recombinant MMP-1 (Homo sapiens)
# Construct: made in house; host or cells: MMP-1-transfected HT-1080 cells (spent media)
# Sequence (P03956 100-469): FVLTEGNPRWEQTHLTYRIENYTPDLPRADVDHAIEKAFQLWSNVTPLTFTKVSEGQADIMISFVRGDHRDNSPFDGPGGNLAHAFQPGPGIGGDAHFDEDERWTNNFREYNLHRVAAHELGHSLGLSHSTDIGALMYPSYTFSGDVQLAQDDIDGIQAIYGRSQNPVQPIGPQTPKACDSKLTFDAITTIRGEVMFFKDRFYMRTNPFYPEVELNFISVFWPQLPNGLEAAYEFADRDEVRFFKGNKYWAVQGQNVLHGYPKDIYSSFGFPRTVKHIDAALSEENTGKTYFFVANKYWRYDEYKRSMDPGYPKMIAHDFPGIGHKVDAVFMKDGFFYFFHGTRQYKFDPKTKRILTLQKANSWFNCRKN
# test-details: In vitro MMP inhibition, IC50 determination (fluorogenic substrate I)
# Assay type: biochemical
# measurement-conditions: value outside parentheses (Ki in parenthesis)
pIC50: −log10 of the molar value.
reported-endpoint: pIC50

compound | recorded-result
O=C(NO)C1(S(=O)(=O)c2ccc(OCCCOCc3cc(C(F)(F)F)cc(C(F)(F)F)c3)cc2)CCOCC1 | < 5.00
CC(C)(C)C1CCN(S(=O)(=O)CCCOc2ccc(S(=O)(=O)C3(C(=O)NO)CCOCC3)cc2)CC1 | < 5.00
COc1ccc(C(=O)CCCCOc2ccc(S(=O)(=O)C3(C(=O)NO)CCOCC3)cc2)c(OC)c1 | < 5.00
CC1CCCCC1COc1ccc(S(=O)(=O)C2(C(=O)NO)CCOCC2)cc1 (centres unmarked) | 5.89
O=C(CCCCOc1ccc(S(=O)(=O)C2(C(=O)NO)CCOCC2)cc1)c1ccc2ccccc2c1 | < 5.00

(Q) Fill blank: measured pIC50 of the compound COc1ccc(CCCOc2ccc(S(=O)(=O)C3(C(=O)NO)CCOCC3)cc2)cc1OC is ____.
(A) < 5.00

(Q) Fill blank: measured pIC50 of the compound O=C(NO)C1(S(=O)(=O)c2ccc(OCCCSCc3cccc(OC(F)(F)F)c3)cc2)CCOCC1 is ____.
(A) 5.05

(Q) Fill blank: measured pIC50 of the compound C/C(=C\c1ccccc1)COc1ccc(S(=O)(=O)C2(C(=O)NO)CCOCC2)cc1 is ____.
(A) 5.57

* * *

# system-name: Human recombinant MMP-2 (Homo sapiens)
# Construct: made in house; host or cells: MMP-2-transfected p2AHT2 cells
# test-details: In vitro MMP inhibition, IC50 determination (fluorogenic substrate I)
# Format: biochemical
# measurement-conditions: value outside parentheses (Ki in parenthesis)
Rule for this label: Fulfilled means IC50 is less than 0.1 µM; Not fulfilled means IC50 is at least 0.1 µM.

(Q) Please determine if CC(C)OCCCNc1ccc(S(=O)(=O)C2(C(=O)NO)CCOCC2)cc1 is below 0.1 µM in terms of IC50.
(A) Not fulfilled

(Q) Please determine if COc1ccc(S(=O)(=O)C[C@H](C)COc2ccc(S(=O)(=O)C3(C(=O)NO)CCOCC3)cc2)cc1 is below 0.1 µM in terms of IC50.
(A) Not fulfilled

(Q) Please determine if COc1ccc(C(=O)N2CCCC(COc3ccc(S(=O)(=O)C4(C(=O)NO)CCOCC4)cc3)C2)cc1 (stereo not shown) is below 0.1 µM in terms of IC50.
(A) Not fulfilled
